# Tested on: MAb 1219S78.6
# Experiment Notes: inhibition enzyme immunoassay: inhibition of MAb binding to surface bound R-(-)-oxaprotiline-mucin conjugate
# Parameters: species or system mouse
Quantity Measured: IC50 relative to reference compound (fold)
Give the value as a plain number.

CN(C)CC(O)CC12CCC(c3ccccc31)c1ccc(Cl)cc12 (centres unmarked) [compound 15]    170.5
CNC[C@@H](O)CC12CCC(c3ccccc31)c1ccccc12 [compound 2]    126.2
CNC[C@@H](CC12CCC(c3ccccc31)c1ccccc12)O[C@@H]1O[C@H](C(=O)O)[C@@H](O)[C@H](O)[C@H]1O [compound 4]    229.5
CNCC(CC12CCC(c3ccccc31)c1ccccc12)OC(C)=O (centres unmarked) [compound 11]    3.3
NCC(O)CC12CCC(c3ccccc31)c1ccccc12 (centres unmarked) [compound 7]    249.2
CNCC(O)CC12CCC(c3ccccc31)c1ccccc12 (racemic) [compound 3]    1.7

We now examine a further molecule.
Any idea what IC50 relative to reference compound (fold) was measured for CN1COC(CC23CCC(c4ccccc42)c2ccccc23)C1 (centres unmarked) [compound 13] ? 1.6

----------
# Test system: MAb 1226S31.3
# Experiment Notes: inhibition enzyme immunoassay: inhibition of MAb binding to surface bound R-(-)-oxaprotiline-mucin conjugate
# Parameters: species or system mouse
Hi, to clarify the labels: criterion met covers rel. affinity from 0.5 upward, criterion not met covers anything below 0.5.

Study these solved cases before continuing.
CN1COC(CC23CCC(c4ccccc42)c2ccccc23)C1 (centres unmarked) [compound 13]    criterion met
NCC(O)CC12CCC(c3ccccc31)c1ccccc12 (centres unmarked) [compound 7]    criterion not met
CNC[C@H](CC12CCC(c3ccccc31)c1ccccc12)O[C@@H]1O[C@H](C(=O)O)[C@@H](O)[C@H](O)[C@H]1O [compound 5]    criterion met
CNCC(O)CC12CCC(c3ccccc31)c1ccc(C(F)(F)F)cc12 (centres unmarked) [compound 16]    criterion met
c1ccc2c(c1)C1CCC2(CC2CNCCO2)c2ccccc21 (centres unmarked) [compound 12]    criterion not met
CN(C)CC(O)CC12CCC(c3ccccc31)c1ccc(C(F)(F)F)cc12 (centres unmarked) [compound 17]    criterion met
CNC[C@@H](CC12CCC(c3ccccc31)c1ccccc12)O[C@@H]1O[C@H](C(=O)O)[C@@H](O)[C@H](O)[C@H]1O [compound 4]    criterion met

Switching to the query record.
Could you please find out whether CN(C)CC(O)CC12CCC(c3ccccc31)c1ccc(Cl)cc12 (centres unmarked) [compound 15] has rel. affinity that meets 0.5 or exceeds it? criterion met

----------
Entries and their rel. affinity
# Tested on: MAb 1225S93.2
# Experiment Notes: inhibition enzyme immunoassay: inhibition of MAb binding to surface bound R-(-)-oxaprotiline-mucin conjugate
# Design: species or system mouse
Enter a number only.

NCC(O)CC12CCC(c3ccccc31)c1ccccc12 (centres unmarked)    2.0

Recorded rel. affinity of CNCC(CC12CCC(c3ccccc31)c1ccccc12)OC(C)=O (centres unmarked) , please. 1.9

Also need CN1COC(CC23CCC(c4ccccc42)c2ccccc23)C1 (centres unmarked) , thanks. 1.6

----------
# Tested on: MAb 1219S59.11
# Experiment Notes: inhibition enzyme immunoassay: inhibition of MAb binding to surface bound R-(-)-oxaprotiline-mucin conjugate
# Set-up: species or system mouse
Reported rel. affinity values follow for various compounds

Examples from the recorded data:
NCC(O)CC12CCC(c3ccccc31)c1ccccc12 (centres unmarked) [compound 7]    368.9
CNCC(CC12CCC(c3ccccc31)c1ccccc12)OC(C)=O (centres unmarked) [compound 11]    4.5
c1ccc2c(c1)C1CCC2(CC2CNCCO2)c2ccccc21 (centres unmarked) [compound 12]    174.1
CNC[C@@H](O)CC12CCC(c3ccccc31)c1ccccc12 [compound 2]    462.0

Note: attention shifts to another entry.
Looking for the measured rel. affinity of CNCC(O)CC12CCC(c3ccccc31)c1ccc(C(F)(F)F)cc12 (centres unmarked) [compound 16] , can you help? >3448

----------
This section presents compounds with their documented pIC50 values.
# Target Entity: MAb 1219S78.6
# Experiment Notes: inhibition enzyme immunoassay: inhibition of MAb binding to surface bound R-(-)-oxaprotiline-mucin conjugate
# Study Conditions: MAb 1219S78.6; read-out: IC₅₀
API: returns pIC50 as number; meaning -log10 of concentration in mol/L.

CNC[C@@H](O)CC12CCC(c3ccccc31)c1ccccc12 [compound 2]    7.41
CN(C)CC(O)CC12CCC(c3ccccc31)c1ccc(Cl)cc12 (stereo not drawn) [compound 15]    7.28
CNC[C@@H](CC12CCC(c3ccccc31)c1ccccc12)O[C@@H]1O[C@H](C(=O)O)[C@@H](O)[C@H](O)[C@H]1O [compound 4]    7.15

Recall the recorded pIC50 for CNCC(CC12CCC(c3ccccc31)c1ccccc12)OC(C)=O (stereo not drawn) [compound 11] with MAb 1219S78.6 and state it. 9.00

----------
# Target Entity: MAb 1219S59.11
# Experiment Notes: inhibition enzyme immunoassay: inhibition of MAb binding to surface bound R-(-)-oxaprotiline-mucin conjugate
# Study Conditions: MAb 1219S59.11; read-out: IC₅₀
In this section we review reported pIC50 values for a set of compounds.
API: returns pIC50 as number; meaning -log10 of concentration in mol/L.

Before answering, review these 6 worked examples.
CN1COC(CC23CCC(c4ccccc42)c2ccccc23)C1 (stereo not drawn) [compound 13]    9.26
NCC(O)CC12CCC(c3ccccc31)c1ccccc12 (stereo not drawn) [compound 7]    6.97
CNC[C@@H](O)CC12CCC(c3ccccc31)c1ccccc12 [compound 2]    6.87
CNC[C@@H](CC12CCC(c3ccccc31)c1ccccc12)O[C@@H]1O[C@H](C(=O)O)[C@@H](O)[C@H](O)[C@H]1O [compound 4]    7.15
c1ccc2c(c1)C1CCC2(CC2CNCCO2)c2ccccc21 (stereo not drawn) [compound 12]    7.30
CNCC(O)CC12CCC(c3ccccc31)c1ccccc12 (racemic) [compound 3]    9.12

Reported pIC50, compound CNC[C@H](O)CC12CCC(c3ccccc31)c1ccccc12 [compound 1] : ____ 9.54

----------
# System: MAb 1219S59.11
# Experiment Notes: inhibition enzyme immunoassay: inhibition of MAb binding to surface bound R-(-)-oxaprotiline-mucin conjugate
# Set-up: species or system mouse
Quantity Measured: rel. affinity
Form: value (number only, do not type unit).

Requested read-out: rel. affinity. Entry: CN1COC(CC23CCC(c4ccccc42)c2ccccc23)C1 (stereo not drawn) [compound 13] 1.9

Try CN(C)CC(O)CC12CCC(c3ccccc31)c1ccc(Cl)cc12 (stereo not drawn) [compound 15] next. 124.1

What about this compound? CNCC(O)CC12CCC(c3ccccc31)c1ccccc12 (racemic) [compound 3] 2.6

Try this compound too: CNC[C@@H](CC12CCC(c3ccccc31)c1ccccc12)O[C@@H]1O[C@H](C(=O)O)[C@@H](O)[C@H](O)[C@H]1O [compound 4] 244.8

----------
# Target Entity: MAb 1228P63.1
# Experiment Notes: inhibition enzyme immunoassay: inhibition of MAb binding to surface bound R-(-)-oxaprotiline-mucin conjugate
# Study Conditions: MAb 1228P63.1; read-out: IC₅₀
Quantity Measured: pIC50
Units for pIC50: none; it is -log10 of a concentration expressed in mol/L.

CN(C)CC(O)CC12CCC(c3ccccc31)c1ccc(Cl)cc12 (stereo not drawn)    7.90

// map CNC[C@@H](O)CC12CCC(c3ccccc31)c1ccccc12 to recorded pIC50 (system: MAb 1228P63.1) 8.31

Next record, please: c1ccc2c(c1)C1CCC2(CC2CNCCO2)c2ccccc21 (stereo not drawn) 8.63

----------
pIC50 by entry:
# Target Entity: MAb 1225S93.2
# Experiment Notes: inhibition enzyme immunoassay: inhibition of MAb binding to surface bound R-(-)-oxaprotiline-mucin conjugate
# Study Conditions: MAb 1225S93.2; read-out: IC₅₀
On this scale, pIC50 is minus log10 of a concentration expressed in M (mol/L).

Example cases with answers are listed next.
CNC[C@H](O)CC12CCC(c3ccccc31)c1ccccc12    9.43
CNC[C@@H](CC12CCC(c3ccccc31)c1ccccc12)O[C@@H]1O[C@H](C(=O)O)[C@@H](O)[C@H](O)[C@H]1O    7.04
CN(C)CC(O)CC12CCC(c3ccccc31)c1ccc(Cl)cc12 (stereo not drawn)    7.56
CNC[C@H](CC12CCC(c3ccccc31)c1ccccc12)O[C@@H]1O[C@H](C(=O)O)[C@@H](O)[C@H](O)[C@H]1O    6.80
NCC(O)CC12CCC(c3ccccc31)c1ccccc12 (stereo not drawn)    9.12

Give its pIC50 value. Item: c1ccc2c(c1)C1CCC2(CC2CNCCO2)c2ccccc21 (stereo not drawn) 8.63

Again, but for CNC[C@@H](O)CC12CCC(c3ccccc31)c1ccccc12 9.07

Follow-up item: CN(C)CC(O)CC12CCC(c3ccccc31)c1ccc(C(F)(F)F)cc12 (stereo not drawn) 6.63

What do you get for CNCC(O)CC12CCC(c3ccccc31)c1ccc(C(F)(F)F)cc12 (stereo not drawn) ? 7.03

Same question, CN1COC(CC23CCC(c4ccccc42)c2ccccc23)C1 (stereo not drawn) this time 9.24

Follow-up entry: CNCC(CC12CCC(c3ccccc31)c1ccccc12)OC(C)=O (stereo not drawn) 9.15

Quick one: CNCC(O)CC12CCC(c3ccccc31)c1ccccc12 (racemic) 9.32

Sourced from patent EP0392976A1
